Cited source: patent US20140220040A1

Molecular target: T1, Human LRP6-Fc (R&D Systems), recombinant human LRP6 containing the complete extracellular domain (human, UniProt O75581 20-1370)
T1 construct: Bought protein; also called hLRP6; Fc-antigen; not shown: Fc part of the bought fusion protein
T1 sequence: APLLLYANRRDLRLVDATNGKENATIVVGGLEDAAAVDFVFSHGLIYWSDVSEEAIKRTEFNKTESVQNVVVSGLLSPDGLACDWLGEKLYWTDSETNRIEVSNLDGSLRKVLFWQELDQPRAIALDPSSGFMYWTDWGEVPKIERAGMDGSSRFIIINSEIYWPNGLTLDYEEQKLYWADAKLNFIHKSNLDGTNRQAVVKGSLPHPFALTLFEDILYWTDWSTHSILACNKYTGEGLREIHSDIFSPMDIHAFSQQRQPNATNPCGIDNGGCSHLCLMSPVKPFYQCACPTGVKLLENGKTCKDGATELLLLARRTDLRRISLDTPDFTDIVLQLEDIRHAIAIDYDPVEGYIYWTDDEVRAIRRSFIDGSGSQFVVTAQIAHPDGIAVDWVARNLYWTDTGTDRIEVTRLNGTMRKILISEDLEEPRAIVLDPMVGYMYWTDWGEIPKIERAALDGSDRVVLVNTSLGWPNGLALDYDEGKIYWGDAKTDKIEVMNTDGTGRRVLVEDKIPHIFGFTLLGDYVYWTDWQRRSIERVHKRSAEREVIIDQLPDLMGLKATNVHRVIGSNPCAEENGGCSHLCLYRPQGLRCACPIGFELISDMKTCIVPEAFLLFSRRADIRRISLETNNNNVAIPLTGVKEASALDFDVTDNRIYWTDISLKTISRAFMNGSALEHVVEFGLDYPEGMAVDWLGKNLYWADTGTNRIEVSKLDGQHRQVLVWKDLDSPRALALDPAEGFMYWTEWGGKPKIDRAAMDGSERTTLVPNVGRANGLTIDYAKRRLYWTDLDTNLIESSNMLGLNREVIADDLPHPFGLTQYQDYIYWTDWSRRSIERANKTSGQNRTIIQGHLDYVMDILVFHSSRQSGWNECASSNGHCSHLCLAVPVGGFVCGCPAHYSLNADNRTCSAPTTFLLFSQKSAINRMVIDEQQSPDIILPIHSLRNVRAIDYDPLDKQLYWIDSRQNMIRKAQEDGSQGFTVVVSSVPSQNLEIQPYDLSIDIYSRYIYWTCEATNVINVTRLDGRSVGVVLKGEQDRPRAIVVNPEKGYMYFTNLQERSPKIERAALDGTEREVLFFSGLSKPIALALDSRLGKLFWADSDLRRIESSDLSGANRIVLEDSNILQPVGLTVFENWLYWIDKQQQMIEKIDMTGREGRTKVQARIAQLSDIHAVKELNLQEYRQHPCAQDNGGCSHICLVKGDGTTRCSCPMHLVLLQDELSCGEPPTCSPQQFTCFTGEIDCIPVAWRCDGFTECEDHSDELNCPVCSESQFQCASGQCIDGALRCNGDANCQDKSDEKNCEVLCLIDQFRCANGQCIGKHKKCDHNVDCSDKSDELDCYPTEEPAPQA
Experiment: SPR (BIAcore), mAb captured on anti-mouse chip, Fc-antigen injected, 1:1 model
quantity kind: pKd
API: returns pKd as number; meaning -log10 of concentration in mol/L.

binder	pKd
anti-LRP6 monoclonal antibody 537.2 (antibody, V domains shown, Murine hybridoma mAb, protein G purified; also called VH8/VL8) VH: DVQLQESGPGLVKPSQSLSLTCSVTGYSITSGYYWNWIRQFPGDKLEWMGHINYDGRDNYNPSLKNRISITRDTSKNQFFLKLNSVTTEDTATYYCAREFGNFPYYFDYWGQGTTLTVSS VL: QIVLTQSPAIMSASPGEKVTISCSAYSSVRFMFWYQQKPGSSPKPLIYRTSNLASGVSARFSGSGSGTSYSLTISSMEAEDAATYYCQQYHSYPWTFGGGTKLEI	9.05

Determine its reported pKd: anti-LRP6 monoclonal antibody 240.8 (antibody, V domains shown, Murine hybridoma mAb, protein G purified; also called VH4/VL4) VH: DVKLVESGGGLVKLGGSLKLSCAASGFTFSSYYMSWVRQTPEKRLELVAAINSNGGSTYYADTMKGRFTISRDNAKNTLYLQMISLKSEDTAFYYCASELAGYGTPFAYWGHGTLVTVSA VL: DIVLTQFPATLSVTPGDSVSLSCRASQSISSNLHWYQQTSHESPRLLIKYASQSISGIPSRFSGTGSGTDFTLSINSVETEDFGMYFCQQSNTWPLTFGAGTKLEL
8.18
